Test target: Cyclin-dependent kinase 4 (Homo sapiens)
Cond: at 0.1 µM
Description: GSK_PKIS: CDK4/cyclinD mean inhibition at 0.1 uM [Nanosyn]
Measured inhibition, listed per entry.
Observed property: inhibition (%)

>>> numeric_value("Cc1ccc(NC(=O)CC2CC2)cc1-c1ccc(C(=O)NCC2CC2)cc1")
1.69
>>> numeric_value("CN(C)C(=O)O[C@H]1CN[C@H](C#Cc2cc3ncnc(Nc4ccc(OCc5cccc(F)c5)c(Cl)c4)c3s2)C1")
1.82
>>> numeric_value("Cc1cc(-c2ccccn2)cc(C)c1/C=C/c1cncc(-c2nn[nH]n2)c1")
6.05
>>> numeric_value("N#Cc1cccc(Nc2nccc(-c3cnn4ncccc34)n2)c1")
71
>>> numeric_value("Nc1nccc(-c2c(-c3ccc(F)cc3)nn3cc(C(F)(F)F)ccc23)n1")
0.37
>>> numeric_value("CCOc1nccc2c1nc(-c1nonc1N)n2CC")
0.99
>>> numeric_value("Nc1ccc(C#Cc2cncnc2Nc2ccc(OCc3cccc(F)c3)c(Cl)c2)cc1")
1.19
>>> numeric_value("NS(=O)(=O)c1cccc(Nc2cc(-c3ccc(F)cc3)n[nH]2)c1")
1.88
>>> numeric_value("COC(=O)Nc1nc2cc(Oc3ccc(NC(=O)Nc4cccc(Br)c4)cc3)ccc2[nH]1")
2.4
>>> numeric_value("Cc1ccc(Nc2ccnc(Nc3cccc(C(N)=O)c3)n2)cc1O")
-2.5
>>> numeric_value("CN1CCN(C(=O)c2ccc(NC(=O)Nc3ccc(N(C)c4ccnc(Nc5ccc(CS(C)(=O)=O)cc5)n4)cc3)cc2)CC1")
2.05
>>> numeric_value("FC(F)(F)c1ccc(-c2nn3ncccc3c2-c2ccnc(Nc3ccc4c(c3)OCCO4)n2)cc1")
5.36
>>> numeric_value("ON=C1CCc2cc(-c3nc(C4CCNCC4)[nH]c3-c3ccncc3)ccc21")
0.69
>>> numeric_value("CCn1c(-c2nonc2N)nc2c(C#CC(C)(C)O)nc(OCCNC)cc21")
5.94
>>> numeric_value("NS(=O)(=O)c1cccc(-c2cc3ccncc3cc2OCc2ccccc2)c1")
3.55
>>> numeric_value("CC(C)c1ccc(Nc2nccc(-c3cnn4ncccc34)n2)cc1")
9.51
>>> numeric_value("Cc1ccc2c(c1)/C(=N/Nc1ccc(S(N)(=O)=O)cc1)C(=O)N2")
1.36
>>> numeric_value("CC(C)c1ccc2c(c1)NC(=O)/C2=N/Nc1ccc(S(N)(=O)=O)cc1")
0.37
>>> numeric_value("C[C@@H](Oc1cc(-n2cnc3ccc(OC[C@@H](O)CO)cc32)sc1C(N)=O)c1ccccc1Cl")
-0.86
>>> numeric_value("Nc1nccc(C#Cc2cncnc2Nc2ccc(OCc3cccc(F)c3)c(Cl)c2)n1")
3.03
>>> numeric_value("O=C1Nc2ccc(-c3cccnc3)cc2C1=Cc1cc(Br)c(O)c(Br)c1")
3.31
>>> numeric_value("[O-][S+]1CCN(Cc2ccc(-c3ccc4ncnc(Nc5ccc(OCc6ccccc6)c(Cl)c5)c4c3)o2)CC1")
0.13
>>> numeric_value("CN(C)CCCn1c(-c2nonc2N)nc2cnccc21")
3.12
